self-cleavage kobs at 640 uM GlcN6P values for the variants below.
B1: glmS ribozyme (parent)
chain: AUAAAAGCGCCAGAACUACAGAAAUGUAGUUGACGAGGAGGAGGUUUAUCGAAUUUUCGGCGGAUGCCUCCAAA

variants of: B1; assay: self-cleavage kobs at 640 uM GlcN6P; higher = faster cleavage; RNA array; details: with glucosamine-6-phosphate
This sample holds only a part of the variants without activity.
Note: unit s⁻¹ is implicit; provide only the numeric part.

>  <entry sequence>
AUAAAAGCGCAAGAACUACAGAAAUGUAGUUGACGAGGAGGAGGUUUAUGGAAUUUUCGGAGGAUGCCUCCAAA [C11A C50G C61A]

>  <value unit>
s⁻¹

>  <observed measurement>
0.000272

$$$$
>  <entry sequence>
AUAAAAGCGCCACAACUACAGAAAUGUAGUAGACGAGGAGGAGGUUUAUCGAAUUUUCGGCGGAUGCCUCCAAA [G13C U31A]

>  <value unit>
s⁻¹

>  <observed measurement>
7.16e-05

$$$$
>  <entry sequence>
AUAAAAGCGCCAUAACUACAGAAAUGUAGUUGACGAGGAGGAGGAUUAUCGAAUUUUCGGCGGAUGCCUCCAAA [G13U U45A]

>  <value unit>
s⁻¹

>  <observed measurement>
0.000543

$$$$

Given the entry AUAAAAGCGCCAGAACUACAGAAAUGUAGUUGACGAGGAGGAGGUUUUUCGAGUUUUCGGCGGAUGCCUCCAAA [A48U A53G] , report its measured self-cleavage kobs at 640 uM GlcN6P.
0.000127

Please look up its self-cleavage kobs at 640 uM GlcN6P: AUAAAAGCGCCAGGACUACAGAAAUGUAGUUGACGAGGAGGAGGUUUAUCGAAUUUUGGGCGGAUGCCACCAAA [A14G C58G U69A]
8.05e-05

Which self-cleavage kobs at 640 uM GlcN6P value is on record for AUAAAAGCGCCAGAAUUACAGAAAUGUAGGUGACGAGGAGGAGGUUUAUCGAAUUUUCGGCGGAUGCCUCCAAA [C16U U30G] ?
0.000244

Item under review: AUAAAAGCGCCAUAACUACAGAAAUGUAGUUGACGAGGAGGAGGUUCAUCGAAUUUUCGGCGGAUGCCUCCAAA [G13U U47C] . Reported self-cleavage kobs at 640 uM GlcN6P?
2.85e-05

// self-cleavage kobs at 640 uM GlcN6P lookup, key: AUAAAAGCGCCAGAACUACAGAAAUGUAGUUGACGAGGAGGAGGUUUAUCGAAUUUUCGGCGGGUGUCUCCAAA [A64G C67U]
0.000628

Bench note: what self-cleavage kobs at 640 uM GlcN6P did AUAAAAGCGCCAGAACUACAGAAAUGUAGUAGACGAGGAGGGGGUUAAUCGAAUUUUCGGCGGAUGCCUCCAAA [U31A A42G U47A] show?
0.00346
